Reference for the values: patent US20200339690A1

- TARGET OR TEST SYSTEM: human LILRB2 expressed on cells (human, UniProt Q8N423 22-597)
- Sequence (Q8N423 other isoform, or with tags, fused parts or gaps limits assumed): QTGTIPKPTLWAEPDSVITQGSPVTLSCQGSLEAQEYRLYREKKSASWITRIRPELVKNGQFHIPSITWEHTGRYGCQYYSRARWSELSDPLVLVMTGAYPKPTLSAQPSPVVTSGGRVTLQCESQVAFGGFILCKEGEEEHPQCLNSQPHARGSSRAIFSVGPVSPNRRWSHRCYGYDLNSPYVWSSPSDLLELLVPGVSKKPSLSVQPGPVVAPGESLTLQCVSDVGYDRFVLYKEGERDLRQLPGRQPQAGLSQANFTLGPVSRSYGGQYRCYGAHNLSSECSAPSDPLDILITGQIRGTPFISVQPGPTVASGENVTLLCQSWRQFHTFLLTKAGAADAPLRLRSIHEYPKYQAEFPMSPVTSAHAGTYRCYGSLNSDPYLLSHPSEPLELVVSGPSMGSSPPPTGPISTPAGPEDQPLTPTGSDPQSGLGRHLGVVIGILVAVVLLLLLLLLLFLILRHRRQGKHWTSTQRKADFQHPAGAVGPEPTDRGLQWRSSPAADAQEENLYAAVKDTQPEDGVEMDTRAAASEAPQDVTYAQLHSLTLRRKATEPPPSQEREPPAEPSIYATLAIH
- METHOD NOTES: cell-based or functional assay
PROPERTY MEASURED: IL-10 production (fold over LPS alone)
Give just the numeric value; fold over LPS alone need not be written.

IN: Query: IL-10 production (fold over LPS alone); subject: J-11 (antibody, human IgG4 S228P, kappa, V domains shown, Human IgG4 chimera of murine origin; also called J-11.h) VH: QVQLQQSGAELMKPGASVKLSCKATGYILTGYWIEWVKQRPGHGLEWIGEILPGSGSTNYNENFKGKATFTADTSSNTAYMQLSSLTTEDSAIYYCARAVLGYFDYWGQGTTLTVSS VL: DIVMTQSHKFMSTSVGDRVSITCKASQDVSTAVAWYQQKPGQSPKLLIYWASTRHTGVPDRFTGSGSGTDYTLTISSVQAEDLALYYCHQHYSTYTFGGGTKLEIKR
OUT: 0.81
